pIC50: −log10 of the molar value.
Literature compilation of pIC50 measurements on CD73 (Homo sapiens (Human), UniProt P21589).
PROPERTY_MEASURED: pIC50

[
  {
    "COMPOUND": "O=P(O)(O)C(CO)(Cc1nn[nH]n1)OC[C@H]1O[C@@H](n2ncc3c(NCC4CC4)nc(Cl)nc32)[C@H](O)[C@@H]1O (mixture of isomers)",
    "ASSAY_TARGET": "CD73 (Homo sapiens (Human), UniProt P21589)",
    "PROPERTY_MEASURED": "pIC50",
    "RESULT": "≥ 7.00"
  },
  {
    "COMPOUND": "O=P(O)(O)[C@@](CO)(Cc1nn[nH]n1)OC[C@H]1O[C@@H](n2ncc3c(NCc4ccccc4Cl)nc(Cl)nc32)[C@H](O)[C@@H]1O (single isomer, unassigned)",
    "ASSAY_TARGET": "CD73 (Homo sapiens (Human), UniProt P21589)",
    "PROPERTY_MEASURED": "pIC50",
    "RESULT": "≥ 8.00"
  },
  {
    "COMPOUND": "C[C@@H]1CCCC[C@@H]1NC(=O)O[C@@H]1CCN(c2cn[nH]c(=O)c2Cl)C1",
    "ASSAY_TARGET": "CD73 (Homo sapiens (Human), UniProt P21589)",
    "PROPERTY_MEASURED": "pIC50",
    "RESULT": "5.00 to 9.00"
  },
  {
    "COMPOUND": "CC1(OC(=O)NC2CCC(F)(F)CC2)CCN(c2cn[nH]c(=O)c2Cl)C1 (stereo not shown)",
    "ASSAY_TARGET": "CD73 (Homo sapiens (Human), UniProt P21589)",
    "PROPERTY_MEASURED": "pIC50",
    "RESULT": "5.00 to 9.00"
  },
  {
    "COMPOUND": "O=C(N[C@H]1CC[C@H](NS(=O)(=O)c2cc(F)ccc2F)CC1)O[C@@H]1CCN(c2cn[nH]c(=O)c2Cl)C1",
    "ASSAY_TARGET": "CD73 (Homo sapiens (Human), UniProt P21589)",
    "PROPERTY_MEASURED": "pIC50",
    "RESULT": "5.00 to 9.00"
  },
  {
    "COMPOUND": "O=C(Nc1ccc(F)cc1)N[C@H]1CC[C@H](NC(=O)O[C@@H]2CCN(c3cn[nH]c(=O)c3Cl)C2)CC1",
    "ASSAY_TARGET": "CD73 (Homo sapiens (Human), UniProt P21589)",
    "PROPERTY_MEASURED": "pIC50",
    "RESULT": "5.00 to 9.00"
  },
  {
    "COMPOUND": "O=P(O)(O)[C@@H](Cc1ccccc1)S(=O)(=O)C[C@H]1O[C@@H](n2ncc3c(NC4CCCC4)nc(Cl)nc32)[C@H](O)[C@@H]1O",
    "ASSAY_TARGET": "CD73 (Homo sapiens (Human), UniProt P21589)",
    "PROPERTY_MEASURED": "pIC50",
    "RESULT": "≥ 7.00"
  },
  {
    "COMPOUND": "O=C(N[C@@H]1CC[C@H](NC(=O)c2ccccc2)C1)O[C@@H]1CCN(c2cn[nH]c(=O)c2Cl)C1",
    "ASSAY_TARGET": "CD73 (Homo sapiens (Human), UniProt P21589)",
    "PROPERTY_MEASURED": "pIC50",
    "RESULT": "5.00 to 9.00"
  },
  {
    "COMPOUND": "O=P(O)(O)COC[C@H]1O[C@@H](n2ccc3c(NCc4ccccc4Cl)nc(Cl)nc32)[C@H](O)[C@@H]1O",
    "ASSAY_TARGET": "CD73 (Homo sapiens (Human), UniProt P21589)",
    "PROPERTY_MEASURED": "pIC50",
    "RESULT": "≥ 6.30"
  },
  {
    "COMPOUND": "O=P(O)(O)COC[C@H]1O[C@@H](n2ncc3c(NCc4cccc5ccccc45)nc(Cl)nc32)[C@H](O)[C@@H]1O",
    "ASSAY_TARGET": "CD73 (Homo sapiens (Human), UniProt P21589)",
    "PROPERTY_MEASURED": "pIC50",
    "RESULT": "≥ 6.30"
  },
  {
    "COMPOUND": "COC[C@@](C)(OC[C@H]1O[C@@H](n2nnc3c(NC4CCCC4)cc(Cl)nc32)[C@H](O)[C@@H]1O)P(=O)(O)O",
    "ASSAY_TARGET": "CD73 (Homo sapiens (Human), UniProt P21589)",
    "PROPERTY_MEASURED": "pIC50",
    "RESULT": "≥ 7.00"
  },
  {
    "COMPOUND": "COC[C@](Cc1nn[nH]n1)(OC[C@H]1O[C@@H](c2ccc3c(NC4CCCC4)nc(Cl)nn23)[C@H](O)[C@@H]1O)P(=O)(O)O (single isomer, unassigned)",
    "ASSAY_TARGET": "CD73 (Homo sapiens (Human), UniProt P21589)",
    "PROPERTY_MEASURED": "pIC50",
    "RESULT": "≥ 9.30"
  },
  {
    "COMPOUND": "O=P(O)(O)COC[C@H]1O[C@@H](n2nnc3c(NC4CCCC4)nc(Cl)nc32)[C@H](O)[C@@H]1O",
    "ASSAY_TARGET": "CD73 (Homo sapiens (Human), UniProt P21589)",
    "PROPERTY_MEASURED": "pIC50",
    "RESULT": "≥ 6.30"
  }
]
